The values you see were collected from paper PMC10786891.

Kd listing for selected binders.
- system-tested: T1, EsCas13d, nuclease-dead (Eubacterium siraeum, UniProt B0MS50, R295A;H300A;R849A;H854A)
- T1 sequence: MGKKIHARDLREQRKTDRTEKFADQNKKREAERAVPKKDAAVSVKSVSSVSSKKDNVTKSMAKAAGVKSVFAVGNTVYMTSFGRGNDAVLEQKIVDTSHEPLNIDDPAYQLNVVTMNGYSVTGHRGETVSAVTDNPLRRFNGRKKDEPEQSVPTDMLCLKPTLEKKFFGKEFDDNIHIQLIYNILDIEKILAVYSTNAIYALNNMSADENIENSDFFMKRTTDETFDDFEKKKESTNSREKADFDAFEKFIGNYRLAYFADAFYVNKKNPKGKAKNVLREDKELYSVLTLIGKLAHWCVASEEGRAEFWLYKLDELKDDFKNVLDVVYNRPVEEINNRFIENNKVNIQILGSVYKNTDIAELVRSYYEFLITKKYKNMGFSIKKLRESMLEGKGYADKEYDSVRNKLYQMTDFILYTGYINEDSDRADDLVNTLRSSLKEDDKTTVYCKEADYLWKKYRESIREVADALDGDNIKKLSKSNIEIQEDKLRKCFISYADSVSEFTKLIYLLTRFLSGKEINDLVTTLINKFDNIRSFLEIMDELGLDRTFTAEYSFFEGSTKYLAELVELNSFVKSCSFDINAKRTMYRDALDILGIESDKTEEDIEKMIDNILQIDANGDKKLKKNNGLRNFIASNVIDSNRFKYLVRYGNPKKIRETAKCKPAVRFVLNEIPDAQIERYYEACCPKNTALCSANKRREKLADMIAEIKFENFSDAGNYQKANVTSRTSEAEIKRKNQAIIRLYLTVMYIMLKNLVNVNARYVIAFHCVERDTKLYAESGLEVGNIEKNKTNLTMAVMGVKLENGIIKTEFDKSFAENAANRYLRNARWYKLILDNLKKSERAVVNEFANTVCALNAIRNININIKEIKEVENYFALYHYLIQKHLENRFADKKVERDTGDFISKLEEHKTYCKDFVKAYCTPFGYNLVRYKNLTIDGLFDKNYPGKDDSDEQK
- test-description: crRNA (strand 1, pre-loaded); Mg2+; 40 mM Tris-HCl pH 7.5, 150 mM NaCl, 6 mM MgCl2, 1 mM DTT, 0.1% Tween-20, 0.2 mg/ml BSA; 25 C; 10 min per concentration, then washed
- assay-setup: tags: His6-TwinStrep-SUMO cleaved; N-terminal SNAP kept (SNAP-Surface 488); label: 3' end held by stalled T7 RNA polymerase
Output should be the measured figure followed by the unit it is expressed in.

Input: Form field: reported Kd of target 1 U3A,A14G (mixed) RNA 1: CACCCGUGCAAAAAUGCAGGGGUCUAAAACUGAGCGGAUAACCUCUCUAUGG RNA 2: GGGAAUGGAUCCACAUCUACGAAUUCGUACCAUAGAGGGGUUAUCCGCACACCGAGAUCGGAAGAGCACACGU
Output: 14.3 nM
